# key: entry, value: Papp at 2 h
experiment: in vitro; settings: pig, LLC-PK1

Q: Can you share its Papp at 2 h? I mean this compound: `COCC(=O)N[C@@H](Cc1ccc(F)c(-c2nccs2)c1)[C@H](O)CN[C@H]1CC2(CCC2)Oc2ncc(CC(C)(C)C)cc21`
Result: 28 ×10⁻⁶ cm/s

Q: Entry under review: `COCC(=O)N[C@@H](Cc1cccc(-c2ccncc2)c1)[C@H](O)CN[C@H]1CC2(CCC2)Oc2ncc(CC(C)(C)C)cc21` . Reported Papp at 2 h?
Result: 22 ×10⁻⁶ cm/s

Q: Give the measured Papp at 2 h of `COCC(=O)N[C@@H](Cc1cc(-c2nccs2)ccc1F)[C@H](O)CN[C@H]1CC2(CCC2)Oc2ncc(CC(C)(C)C)cc21` .
Result: 11 ×10⁻⁶ cm/s

---

assay: Plasma concentration in Sprague-Dawley rat at 30 mg/kg, po at 4 hrs; assay type: ADME, organism-based; parameters: dose 30 mg/kg, route oral
In this section, each of the molecules is paired with its reported concentration at 4 h.
I only need the number, in µM, no unit after it.

smiles_code=C#Cc1cccc(C[C@H](NC(=O)COC)[C@H](O)CN[C@H]2CC3(CCC3)Oc3ncc(CC(C)(C)C)cc32)c1 unit=µM reported_measurement=3.54

Please turn your attention to the following entry.
Q: Request the reported concentration at 4 h associated with `COCC(=O)N[C@@H](Cc1cccc(-c2nccs2)c1)[C@H](O)CN[C@H]1CC2(CCC2)Oc2ncc(CC(C)(C)C)cc21`
Result: 3.27

---

experiment: AUC (0 to infinity) in Sprague-Dawley rat at 10 mg/kg, po; assay type: ADME, organism-based; parameters: time infinity, dose 10 mg/kg, route oral; conditions: plasma
Observation Type: AUC(0-inf) (ng·h/mL)
Report only the number, with the unit ng·h/mL understood.

smiles_code=COCC(=O)N[C@@H](Cc1cccc(-c2nccs2)c1)[C@H](O)CN[C@H]1CC2(CCC2)Oc2ncc(CC(C)(C)C)cc21 unit=ng·h/mL reported_measurement=9030

The record that follows has no AUC(0-inf) shown yet.
Q: For the molecule shown here, `C#Cc1cccc(C[C@H](NC(=O)COC)[C@H](O)CN[C@H]2CC3(CCC3)Oc3ncc(CC(C)(C)C)cc32)c1` , give the reported AUC(0-inf).
Result: 24200

---

test: Tmax in Sprague-Dawley rat at 10 mg/kg, po; type: ADME, organism-based; design: dose 10 mg/kg, route oral; conditions: in vivo
The molecules listed here are annotated with their Tmax.

Q: Give the measured Tmax of `C#Cc1cccc(C[C@H](NC(=O)COC)[C@H](O)CN[C@H]2CC3(CCC3)Oc3ncc(CC(C)(C)C)cc32)c1` .
Result: 5.33 h

Q: # get_value(readout='Tmax', item= `COCC(=O)N[C@@H](Cc1cccc(-c2nccs2)c1)[C@H](O)CN[C@H]1CC2(CCC2)Oc2ncc(CC(C)(C)C)cc21` )
Result: 3.33 h

---

Listed next: entries and their corresponding concentration at 4 h.
assay: Drug uptake in Sprague-Dawley rat CSF at 30 mg/kg, po at 4 hrs; type: ADME, organism-based; design: dose 30 mg/kg, route oral; details: cerebrospinal fluid, read-out: Drug uptake
Response body: numeric value in nM, unit text excluded.

smiles_code=C#Cc1cccc(C[C@H](NC(=O)COC)[C@H](O)CN[C@H]2CC3(CCC3)Oc3ncc(CC(C)(C)C)cc32)c1 reported_measurement=78

// moving on: another record for concentration at 4 h
Q: Which measured concentration at 4 h value corresponds to `COCC(=O)N[C@@H](Cc1cccc(-c2nccs2)c1)[C@H](O)CN[C@H]1CC2(CCC2)Oc2ncc(CC(C)(C)C)cc21` ?
Result: 52

Values from ChEMBL document CHEMBL2176959
